- SYSTEM UNDER TEST: T1, biotin-labeled DsbA (UniProt P0AEG4 20-208, limits assumed, biotin-labeled)
- T1 sequence (looked up): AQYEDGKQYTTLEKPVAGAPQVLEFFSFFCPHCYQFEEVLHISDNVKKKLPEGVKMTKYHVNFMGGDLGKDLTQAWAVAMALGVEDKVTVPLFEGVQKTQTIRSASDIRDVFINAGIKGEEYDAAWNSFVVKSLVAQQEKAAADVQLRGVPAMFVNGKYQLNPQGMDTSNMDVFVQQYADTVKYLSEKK
- PROTOCOL SUMMARY: Biacore X100 per the table title, biotin-DsbA on streptavidin chip; paragraph 121 says Biacore or ITC (Duprez 2015)
No end group written: not given here.

- BINDER: "PSPWATCDF-NH2 [PSPWATCDF-NH2]"
  Kd: "2900 nM"
